Recorded values, source ChEMBL document CHEMBL1149195.

- Target or system: Translocator protein (Rattus norvegicus)
- Sequence (P16257 whole entry, looked up): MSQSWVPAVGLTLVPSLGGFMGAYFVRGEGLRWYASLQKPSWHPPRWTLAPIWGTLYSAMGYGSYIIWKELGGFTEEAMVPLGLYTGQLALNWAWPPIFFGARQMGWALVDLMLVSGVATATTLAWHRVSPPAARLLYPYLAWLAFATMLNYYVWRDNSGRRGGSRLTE
Use Ki to assign classes; range list: bottom: < 3 nM; middle: ≥ 3 nM and < 7 nM; top: ≥ 7 nM

Completed entries (count: 4):
# Structure as smiles, Assigned class
rows = [
    ("CCCNC(=O)C(=O)c1c(-c2ccccc2)[nH]c2ccccc12", "top"),
    ("CCCCCCN(CCCCCC)C(=O)C(=O)c1c(-c2ccc(C)cc2)[nH]c2ccccc12", "bottom"),
    ("CCCCN(CCCC)C(=O)C(=O)c1c(-c2ccccc2)[nH]c2ccccc12", "top"),
    ("O=C(C(=O)N1CCCCCC1)c1c(-c2ccccc2)[nH]c2ccccc12", "top"),
]

Hello team, could you let me know which band the following compound falls into: CCCN(CCC)C(=O)C(=O)c1c(-c2ccc(Cl)cc2)[nH]c2ccccc12
middle

Hello team, could you let me know which band the following compound falls into: CCCN(CCC)C(=O)C(=O)c1c(-c2ccc(Cl)cc2)[nH]c2ccc(Cl)cc12
bottom

Hello team, could you let me know which band the following compound falls into: CCCCN(CCCC)C(=O)C(=O)c1c(-c2ccccc2)[nH]c2ccc(Cl)cc12
middle

Hello team, could you let me know which band the following compound falls into: CCCN(CCC)C(=O)C(=O)c1c(-c2ccccc2)[nH]c2ccc(Cl)cc12
bottom

Hello team, could you let me know which band the following compound falls into: CCCCCCN(CCCCCC)C(=O)C(=O)c1c(-c2ccc(Cl)cc2)[nH]c2ccccc12
bottom
